- target: recombinant soluble homotrimeric HA of A/chicken/Vietnam/NCVD-016/08 (H5N1) (Influenza A virus A/chicken/Vietnam/NCVD-016/2008(H5N1))
- procedureText: HA microarray, BCC supernatant
- conditionContext: remark: other sources report otherwise
The following binders are shown together with reported Trimeric HA Binding: RLU values.
Give a bare numeral; the unit RLU is implied.

In the examples that follow, each entry is paired with its recorded Trimeric HA Binding: RLU.
Query string: Form field: reported Trimeric HA Binding: RLU of TCN-530 (5248_H10a) (antibody, V domains shown) VH: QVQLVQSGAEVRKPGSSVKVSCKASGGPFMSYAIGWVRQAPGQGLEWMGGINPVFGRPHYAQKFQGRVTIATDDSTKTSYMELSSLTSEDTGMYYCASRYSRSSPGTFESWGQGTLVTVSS VL: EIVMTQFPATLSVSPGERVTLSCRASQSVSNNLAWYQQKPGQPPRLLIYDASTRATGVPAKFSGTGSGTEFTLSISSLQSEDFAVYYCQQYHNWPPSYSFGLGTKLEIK
Result string: 48300

Query string: Trimeric HA Binding: RLU lookup needed for TCN-557 (5081_A04) (antibody, V domains shown) VH: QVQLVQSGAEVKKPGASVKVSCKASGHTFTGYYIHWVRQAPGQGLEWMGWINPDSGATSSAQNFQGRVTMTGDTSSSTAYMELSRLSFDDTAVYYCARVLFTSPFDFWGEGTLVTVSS VL: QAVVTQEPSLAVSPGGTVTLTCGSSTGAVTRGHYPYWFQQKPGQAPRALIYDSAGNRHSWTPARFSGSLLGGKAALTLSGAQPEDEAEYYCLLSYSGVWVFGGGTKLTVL , thanks.
Result string: 45500

Now take the following binder into account.
Query string: Recorded Trimeric HA Binding: RLU of TCN-529 (5297_H01) (antibody, V domains shown) VH: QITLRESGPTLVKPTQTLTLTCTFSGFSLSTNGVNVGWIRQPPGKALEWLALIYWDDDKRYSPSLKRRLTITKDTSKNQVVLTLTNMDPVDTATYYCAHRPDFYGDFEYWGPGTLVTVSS VL: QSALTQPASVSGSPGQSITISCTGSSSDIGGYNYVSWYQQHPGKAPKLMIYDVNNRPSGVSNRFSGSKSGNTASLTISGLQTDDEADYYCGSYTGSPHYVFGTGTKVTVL , please.
Result string: 410

FYI, the data here is from patent US20150086555A1.
